study.system: purified recombinant human Aggrecanase-2 (Ag2t-Phe628-Strep) (Homo sapiens, UniProt Q9UNA0)
Construct: the form used is denoted as Ag2t-Phe628-Strep (MW=41,737)
Sequence (Q9UNA0 262-628): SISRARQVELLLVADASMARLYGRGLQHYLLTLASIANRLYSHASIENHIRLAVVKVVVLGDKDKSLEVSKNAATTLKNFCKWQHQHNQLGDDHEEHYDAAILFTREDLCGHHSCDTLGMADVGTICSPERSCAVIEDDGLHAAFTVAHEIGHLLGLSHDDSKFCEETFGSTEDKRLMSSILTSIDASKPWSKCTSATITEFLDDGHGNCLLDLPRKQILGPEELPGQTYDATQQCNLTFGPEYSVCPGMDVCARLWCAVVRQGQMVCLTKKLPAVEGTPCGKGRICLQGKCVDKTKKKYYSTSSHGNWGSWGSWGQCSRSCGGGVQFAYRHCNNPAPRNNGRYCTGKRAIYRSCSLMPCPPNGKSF
test.protocol: In vitro fluorescence screen for Aggrecanase-2 inhibitors
Format: biochemical
assay.context: Table 3; read-out: Ki Agg2
parameter: Ki (µM)
Just the number in µM, nothing appended.

# count of solved cases: 4
CC(C)(Cc1ccc(F)cc1)NC(=O)[C@H](CCC(=O)O)NC(=O)c1ccc(-c2ccc(F)c(Cl)c2)cc1 = 0.356
CC(C)(Cc1ccc(F)cc1)NC(=O)[C@H](CCC(=O)O)NC(=O)c1ccc(-c2ccccc2)s1 = 0.079
CC(C)(Cc1ccc(F)cc1)NC(=O)[C@H](CCC(=O)O)NC(=O)c1ccc(-c2ccc(F)cc2)cc1 = 0.075
CC(C)(Cc1ccc(Cl)cc1)NC(=O)[C@H](CCC(=O)O)NC(=O)c1ccc(-c2ccc(Cl)cc2)cc1 = 0.0716

Task item: Give reported Ki value for Cc1ccc(-c2ccc(C(=O)N[C@@H](CCC(=O)O)C(=O)NC(C)(C)Cc3ccc(F)cc3)cc2)s1
Reply: 0.305

Task item: Give reported Ki value for CC(C)(Cc1ccc(F)cc1)NC(=O)[C@H](CCC(=O)O)NC(=O)c1ccc(-c2ccsc2)cc1
Reply: 0.06

Task item: Give reported Ki value for CC(C)(Cc1ccc(F)cc1)NC(=O)[C@H](CCC(=O)O)NC(=O)c1ccc(-c2ccc(F)cc2)s1
Reply: 0.123
